Target: Human α4β2 nAChR subtype (Homo sapiens, UniProt P17787+P43681)
Construct: expressed in transfected cells; host or cells: SH-EP1 clonal cells
Sequence (P43681 29-627 limits assumed): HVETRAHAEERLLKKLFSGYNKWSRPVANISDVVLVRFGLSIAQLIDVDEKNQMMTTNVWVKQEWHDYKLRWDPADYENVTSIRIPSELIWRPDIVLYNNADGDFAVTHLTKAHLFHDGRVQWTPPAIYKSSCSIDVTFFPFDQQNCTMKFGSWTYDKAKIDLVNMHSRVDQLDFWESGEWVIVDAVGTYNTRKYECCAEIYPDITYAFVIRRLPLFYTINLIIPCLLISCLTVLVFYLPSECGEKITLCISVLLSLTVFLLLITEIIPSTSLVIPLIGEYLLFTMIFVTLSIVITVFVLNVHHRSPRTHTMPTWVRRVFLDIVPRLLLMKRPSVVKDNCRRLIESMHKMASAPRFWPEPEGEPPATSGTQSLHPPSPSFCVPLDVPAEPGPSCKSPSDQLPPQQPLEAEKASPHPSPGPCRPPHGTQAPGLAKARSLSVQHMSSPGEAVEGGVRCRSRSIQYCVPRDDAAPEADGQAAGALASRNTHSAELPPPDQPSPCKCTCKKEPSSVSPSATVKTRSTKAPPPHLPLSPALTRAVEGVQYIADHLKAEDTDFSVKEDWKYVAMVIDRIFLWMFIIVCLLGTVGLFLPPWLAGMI
Sequence (P17787 26-502): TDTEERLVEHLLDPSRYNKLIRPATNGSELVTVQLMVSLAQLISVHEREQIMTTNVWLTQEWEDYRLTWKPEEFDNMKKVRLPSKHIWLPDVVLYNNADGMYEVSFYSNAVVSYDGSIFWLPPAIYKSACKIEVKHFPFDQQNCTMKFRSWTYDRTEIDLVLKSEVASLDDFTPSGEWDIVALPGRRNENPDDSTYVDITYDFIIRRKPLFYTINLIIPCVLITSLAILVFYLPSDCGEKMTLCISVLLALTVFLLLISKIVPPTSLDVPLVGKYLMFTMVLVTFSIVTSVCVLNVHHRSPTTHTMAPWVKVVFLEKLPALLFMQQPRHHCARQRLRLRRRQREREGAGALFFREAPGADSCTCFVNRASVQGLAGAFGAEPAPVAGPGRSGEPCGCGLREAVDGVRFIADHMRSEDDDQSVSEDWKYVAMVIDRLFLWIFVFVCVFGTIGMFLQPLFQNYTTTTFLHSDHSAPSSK
Assay: [3H]nicotine radioligand binding, membranes from SH-EP1/human α4β2 clonal cells
Details: [3H]nicotine; "Failed HTS" = failed to bind sufficiently in high through-put screening to warrant Ki determination; read-out: Human α4β2 Ki
parameter: Ki (nM)
Write it as a number; the unit nM goes unstated.

Lookup: Quick one: Ki of c1cnc2cc3c(cc2c1)CCNCC3 [F] ?
Found: 0.93

Lookup: // returns reported Ki for input COc1cnc2cc3c(cc2n1)CCNCC3 [H]
Found: 25

Lookup: Look up Ki: CCc1nc2cc3c(cc2nc1CC)CCNCC3 [D]
Found: 460

Lookup: Looking for the measured Ki of COc1ccc2cc3c(cc2n1)CCNCC3 [P] , can you help?
Found: 1200

Lookup: Which measured Ki value corresponds to O=c1cnc2cc3c(cc2[nH]1)CCNCC3 [G] ?
Found: 63

Lookup: Endpoint output: Ki of Cc1cnc2cc3c(cc2n1)CCNCC3 [E] . Value?
Found: 37

Lookup: For the compound shown here, CCc1nc2cc3c(cc2nc1C)CCNCC3 [C] , give the reported Ki.
Found: 310

Lookup: Quick one: Ki for Cc1ccc2cc3c(cc2n1)CCNCC3 [Q] ?
Found: 11

Lookup: Can you share its Ki? I mean this compound: c1ccc(CNc2cnc3cc4c(cc3n2)CCNCC4)cc1 [M]
Found: 530

Lookup: Quick one: Ki of CN(C)c1cnc2cc3c(cc2n1)CCNCC3 [L] ?
Found: 740

---

Molecular target: human muscle nAChR subtype (Homo sapiens, UniProt P02708+P07510+Q07001)
Construct: endogenous in cells
Sequence (P02708 21-457): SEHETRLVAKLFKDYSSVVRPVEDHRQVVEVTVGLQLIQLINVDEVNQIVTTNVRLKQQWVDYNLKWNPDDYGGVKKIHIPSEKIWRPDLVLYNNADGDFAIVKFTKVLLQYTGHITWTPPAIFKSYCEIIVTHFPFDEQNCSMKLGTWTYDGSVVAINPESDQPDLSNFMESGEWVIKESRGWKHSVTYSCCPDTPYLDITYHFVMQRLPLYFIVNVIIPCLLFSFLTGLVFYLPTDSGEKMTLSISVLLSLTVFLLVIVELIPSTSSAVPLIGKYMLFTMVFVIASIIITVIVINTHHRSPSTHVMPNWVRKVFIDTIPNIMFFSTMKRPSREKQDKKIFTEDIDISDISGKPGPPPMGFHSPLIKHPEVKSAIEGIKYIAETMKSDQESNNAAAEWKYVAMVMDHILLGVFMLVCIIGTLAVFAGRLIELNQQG
Sequence (P07510 23-517): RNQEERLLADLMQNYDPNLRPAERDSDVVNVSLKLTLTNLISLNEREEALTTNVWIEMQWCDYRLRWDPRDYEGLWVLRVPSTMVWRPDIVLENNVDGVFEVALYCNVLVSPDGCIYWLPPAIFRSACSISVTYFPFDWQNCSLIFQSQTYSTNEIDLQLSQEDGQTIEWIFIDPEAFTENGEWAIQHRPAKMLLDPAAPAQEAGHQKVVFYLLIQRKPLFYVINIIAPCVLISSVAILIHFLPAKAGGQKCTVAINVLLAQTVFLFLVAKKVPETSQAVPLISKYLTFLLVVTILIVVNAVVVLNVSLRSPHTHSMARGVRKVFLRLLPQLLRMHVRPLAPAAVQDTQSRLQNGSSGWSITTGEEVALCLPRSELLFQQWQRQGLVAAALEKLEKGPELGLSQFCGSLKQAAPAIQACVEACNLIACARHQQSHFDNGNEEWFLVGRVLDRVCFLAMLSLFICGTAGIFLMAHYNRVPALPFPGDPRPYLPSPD
Sequence (Q07001 22-517): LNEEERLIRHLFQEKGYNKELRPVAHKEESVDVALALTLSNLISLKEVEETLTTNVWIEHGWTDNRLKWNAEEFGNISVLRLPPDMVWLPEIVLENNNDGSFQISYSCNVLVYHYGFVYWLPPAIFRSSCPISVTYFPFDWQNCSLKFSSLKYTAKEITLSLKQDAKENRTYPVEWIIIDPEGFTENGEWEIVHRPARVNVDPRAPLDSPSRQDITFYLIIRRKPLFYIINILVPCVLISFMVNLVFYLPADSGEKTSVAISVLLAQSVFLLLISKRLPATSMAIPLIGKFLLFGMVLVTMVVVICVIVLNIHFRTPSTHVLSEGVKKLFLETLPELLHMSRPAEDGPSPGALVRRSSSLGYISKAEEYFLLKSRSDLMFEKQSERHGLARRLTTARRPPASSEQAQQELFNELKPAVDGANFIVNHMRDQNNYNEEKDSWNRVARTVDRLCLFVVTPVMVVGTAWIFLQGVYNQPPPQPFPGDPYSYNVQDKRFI
Sequence (P11230 24-501 partner): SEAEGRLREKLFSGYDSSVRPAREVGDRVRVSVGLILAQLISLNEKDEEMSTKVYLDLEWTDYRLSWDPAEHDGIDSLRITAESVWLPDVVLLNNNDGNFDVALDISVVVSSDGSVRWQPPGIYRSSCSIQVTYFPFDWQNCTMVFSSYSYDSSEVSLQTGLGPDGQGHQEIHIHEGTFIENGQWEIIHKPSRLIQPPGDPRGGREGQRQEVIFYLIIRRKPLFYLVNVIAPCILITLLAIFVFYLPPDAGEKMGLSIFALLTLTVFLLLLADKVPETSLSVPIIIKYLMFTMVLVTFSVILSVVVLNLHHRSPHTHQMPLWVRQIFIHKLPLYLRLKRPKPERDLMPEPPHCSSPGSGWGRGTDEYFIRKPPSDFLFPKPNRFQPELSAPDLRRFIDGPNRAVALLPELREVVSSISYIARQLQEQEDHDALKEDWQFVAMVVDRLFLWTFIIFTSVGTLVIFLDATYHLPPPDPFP
Assay: 86Rb+ efflux in TE671/RD cells (human muscle nAChR subtype)
Details: 86Rb+ efflux
parameter: EC50 (µM)
Dear colleague, please return just the value in µM, with no unit written.

Lookup: State the recorded EC50 for this entry: `c1cnc2cc3c(cc2n1)CCNCC3`
Found: 75

---

Biological target: Rat α4β2 nAChR subtype (Rattus norvegicus, UniProt P09483+P12390)
Construct: from tissue; host or cells: rat cerebral cortex membranes (female Sprague-Dawley)
Sequence (P09483 31-630): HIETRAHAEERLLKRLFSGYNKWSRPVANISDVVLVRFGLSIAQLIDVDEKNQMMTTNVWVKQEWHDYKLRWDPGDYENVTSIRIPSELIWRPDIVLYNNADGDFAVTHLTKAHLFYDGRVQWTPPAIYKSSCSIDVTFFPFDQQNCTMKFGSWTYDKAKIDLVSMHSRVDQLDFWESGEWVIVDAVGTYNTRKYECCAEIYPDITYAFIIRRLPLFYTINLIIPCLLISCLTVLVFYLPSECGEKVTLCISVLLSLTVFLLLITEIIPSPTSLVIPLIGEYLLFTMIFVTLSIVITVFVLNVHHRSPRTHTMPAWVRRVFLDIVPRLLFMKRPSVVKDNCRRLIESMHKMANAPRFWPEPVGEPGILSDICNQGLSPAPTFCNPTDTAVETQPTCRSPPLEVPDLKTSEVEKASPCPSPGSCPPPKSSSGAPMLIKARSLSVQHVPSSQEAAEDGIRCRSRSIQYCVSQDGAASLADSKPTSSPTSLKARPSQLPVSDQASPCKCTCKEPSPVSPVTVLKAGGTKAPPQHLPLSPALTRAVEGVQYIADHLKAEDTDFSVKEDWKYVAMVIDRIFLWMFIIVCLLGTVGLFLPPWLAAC
Sequence (P12390 25-500): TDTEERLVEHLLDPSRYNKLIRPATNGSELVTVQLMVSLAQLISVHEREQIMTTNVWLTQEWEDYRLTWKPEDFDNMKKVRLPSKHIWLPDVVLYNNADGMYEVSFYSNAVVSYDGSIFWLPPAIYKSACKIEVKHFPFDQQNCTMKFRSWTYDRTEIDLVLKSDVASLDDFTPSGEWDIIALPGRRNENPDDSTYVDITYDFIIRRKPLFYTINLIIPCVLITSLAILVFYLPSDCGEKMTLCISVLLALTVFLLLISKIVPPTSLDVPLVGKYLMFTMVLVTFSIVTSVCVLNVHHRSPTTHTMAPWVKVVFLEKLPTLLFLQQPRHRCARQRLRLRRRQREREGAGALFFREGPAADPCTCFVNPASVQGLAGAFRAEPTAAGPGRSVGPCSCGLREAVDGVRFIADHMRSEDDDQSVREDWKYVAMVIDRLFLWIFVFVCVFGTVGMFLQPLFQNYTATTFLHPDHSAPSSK
Test: [3H]nicotine radioligand binding, membranes from rat cortex
parameter: pKi
On this scale, pKi is minus log10 of a concentration expressed in M (mol/L).

Lookup: May I ask what pKi has been recorded for Cc1nc2cc3c(cc2nc1C)CCNCC3 [B] ?
Found: 6.23

Lookup: What value of pKi has been recorded for this entry: Clc1cnc2cc3c(cc2n1)CCNCC3 [J]
Found: 7.92

Lookup: Which pKi reading was recorded for the compound c1cnc2cc3c(cc2n1)CCNCC3 [Compound A] ?
Found: 7.77

Lookup: Sample Clc1ccc2cc3c(cc2n1)CCNCC3 [O] — what was its pKi?
Found: 8.51

---

Biological target: Human α4β2 nAChR subtype (Homo sapiens, UniProt P17787+P43681)
Construct: expressed in transfected cells; host or cells: SH-EP1 clonal cells
Experiment: [3H]nicotine radioligand binding, membranes from SH-EP1/human α4β2 clonal cells
parameter: pKi
By convention, pKi is the negative base-10 log of a molar concentration.

Lookup: What value of pKi has been recorded for this entry: `Clc1cnc2cc3c(cc2n1)CCNCC3`
Found: 7.35

Lookup: Any idea what pKi was measured for `Clc1ccc2cc3c(cc2n1)CCNCC3` ?
Found: 9.32

Lookup: Query (compound): `Cc1nc2cc3c(cc2nc1C)CCNCC3` ; field requested: pKi
Found: 7.01

Lookup: For `CN1CCc2cc3nccnc3cc2CC1` , what is its reported pKi?
Found: 6.68

Lookup: Which measured pKi value corresponds to `c1cncc(-c2cnc3cc4c(cc3n2)CCNCC4)c1` ?
Found: 5.13

Lookup: Request the reported pKi associated with `c1cnc2cc3c(cc2n1)CCNCC3`
Found: 8.00
